tested_target: T1, human LAG3 expressed on cells (human, UniProt P18627 23-525)
T1 construct: whole, on cells
T1 sequence (looked up): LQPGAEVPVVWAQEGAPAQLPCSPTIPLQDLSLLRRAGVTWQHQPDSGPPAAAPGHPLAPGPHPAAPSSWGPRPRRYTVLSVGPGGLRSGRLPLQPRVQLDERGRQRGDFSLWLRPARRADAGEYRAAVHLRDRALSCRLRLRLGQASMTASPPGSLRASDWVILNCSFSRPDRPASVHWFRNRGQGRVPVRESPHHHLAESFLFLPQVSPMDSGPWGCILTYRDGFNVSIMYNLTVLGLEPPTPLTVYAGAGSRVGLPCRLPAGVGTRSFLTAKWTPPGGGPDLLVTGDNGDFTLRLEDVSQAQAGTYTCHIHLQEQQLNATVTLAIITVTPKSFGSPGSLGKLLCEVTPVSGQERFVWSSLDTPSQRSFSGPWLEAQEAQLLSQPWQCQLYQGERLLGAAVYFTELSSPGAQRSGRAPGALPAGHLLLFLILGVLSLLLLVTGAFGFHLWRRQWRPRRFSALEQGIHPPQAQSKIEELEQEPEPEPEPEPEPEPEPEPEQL
measurement_protocol: FACS, 293T-hLAG3 cells
Each item that follows carries a reported FACS signal at 0.1829 nM.
assay_readout: FACS signal at 0.1829 nM

binder	value_reported
sdAb No. 27 (VHH, Fc of the tested form not described; also called sdAb 27; not shown: Fc part implied by anti-human Fc capture and anti-human IgG Fc detection) VHH: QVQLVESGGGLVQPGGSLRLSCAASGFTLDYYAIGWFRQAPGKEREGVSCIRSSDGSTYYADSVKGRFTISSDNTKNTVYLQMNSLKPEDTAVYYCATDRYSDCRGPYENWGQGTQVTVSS	393
sdAb No. 25 (VHH, Fc of the tested form not described; also called sdAb 25; sdAb #25; not shown: Fc part implied by anti-human Fc capture and anti-human IgG Fc detection) VHH: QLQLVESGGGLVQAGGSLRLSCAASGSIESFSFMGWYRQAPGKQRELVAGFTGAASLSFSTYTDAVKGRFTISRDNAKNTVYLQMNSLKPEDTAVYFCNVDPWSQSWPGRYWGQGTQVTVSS	247
sdAb No. 25-B7 (VHH, Humanized sdAb No. 25; not shown: Fc part implied by anti-human IgG Fc detection) VHH: QLQLVESGGGLVKPGGSLRLSCAASGSIESFSFMGWYRQAPGKQRELVAGFTGAASLSFSTYTDAVKGRFTISRDNAKNSVYLQMNSLRAEDTAVYFCNVDPWSQSWPGRYWGQGTTVTVSS	487
sdAb No. 27-H1B3 (VHH, Humanized sdAb No. 27-H1; not shown: Fc part implied by anti-human IgG Fc detection) VHH: QVQLVESGGGLVQPGGSLRLSCAASGFTLDYYAIGWFRQAPGKEREGVSCIRSSDASTYYADSVKGRFTISSDNSKNTVYLQMNSLRAEDTAVYYCATDRYSDCRGPYENWGQGTMVTVSS	585
